Reported values: IC50 for ATM (Homo sapiens, UniProt Q13315), one per item.

Qu. Reported IC50, compound COc1ccc(N(C(=O)OCc2cnc([N+](=O)[O-])n2C)c2cc3c(cn2)n(C)c(=O)n3C2CCOCC2)c(C)c1 : ____
Ans. > 100 µM

Qu. Reported IC50, compound Cc1cc(OCc2cnc([N+](=O)[O-])n2C)ccc1Nc1cc2c(cn1)n(C)c(=O)n2C1CCCC1 : ____
Ans. > 100 µM

Qu. Reported IC50, compound Cn1c(=O)n(C2CCCC2)c2cc(Nc3cnc4ccccc4c3)ncc21 : ____
Ans. 1.1 µM

---

# Experimental system: human PI3Kα (p110α/p85α) (Homo sapiens)
# Sequence (P42336 whole entry): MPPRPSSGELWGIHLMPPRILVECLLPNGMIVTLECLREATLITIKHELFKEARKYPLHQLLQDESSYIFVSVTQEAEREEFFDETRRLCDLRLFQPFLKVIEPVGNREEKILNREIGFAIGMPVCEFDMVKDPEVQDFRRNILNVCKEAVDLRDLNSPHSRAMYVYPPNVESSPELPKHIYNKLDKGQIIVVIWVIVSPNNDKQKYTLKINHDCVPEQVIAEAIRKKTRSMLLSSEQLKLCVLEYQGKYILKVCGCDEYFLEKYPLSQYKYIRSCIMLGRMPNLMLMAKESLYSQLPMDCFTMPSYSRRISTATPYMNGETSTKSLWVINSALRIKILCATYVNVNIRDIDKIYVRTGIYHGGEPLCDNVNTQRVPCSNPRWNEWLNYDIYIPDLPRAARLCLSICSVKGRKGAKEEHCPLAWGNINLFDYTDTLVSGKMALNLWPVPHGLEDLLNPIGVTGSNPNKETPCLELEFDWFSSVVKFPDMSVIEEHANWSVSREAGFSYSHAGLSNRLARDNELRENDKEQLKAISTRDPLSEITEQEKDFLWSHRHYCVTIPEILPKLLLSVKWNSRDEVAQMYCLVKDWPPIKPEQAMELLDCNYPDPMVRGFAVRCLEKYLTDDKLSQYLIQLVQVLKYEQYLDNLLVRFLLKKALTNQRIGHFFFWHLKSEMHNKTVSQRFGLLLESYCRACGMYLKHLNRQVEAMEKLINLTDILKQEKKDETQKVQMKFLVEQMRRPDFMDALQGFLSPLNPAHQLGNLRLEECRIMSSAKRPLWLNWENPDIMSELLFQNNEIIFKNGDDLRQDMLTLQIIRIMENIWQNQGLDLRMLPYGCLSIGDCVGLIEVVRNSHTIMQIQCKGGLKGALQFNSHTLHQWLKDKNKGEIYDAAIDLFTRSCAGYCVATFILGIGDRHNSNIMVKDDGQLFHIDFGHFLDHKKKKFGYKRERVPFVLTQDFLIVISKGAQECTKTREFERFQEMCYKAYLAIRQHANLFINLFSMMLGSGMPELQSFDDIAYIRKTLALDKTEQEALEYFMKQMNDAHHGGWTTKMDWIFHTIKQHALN
# Sequence (P27986 whole entry partner): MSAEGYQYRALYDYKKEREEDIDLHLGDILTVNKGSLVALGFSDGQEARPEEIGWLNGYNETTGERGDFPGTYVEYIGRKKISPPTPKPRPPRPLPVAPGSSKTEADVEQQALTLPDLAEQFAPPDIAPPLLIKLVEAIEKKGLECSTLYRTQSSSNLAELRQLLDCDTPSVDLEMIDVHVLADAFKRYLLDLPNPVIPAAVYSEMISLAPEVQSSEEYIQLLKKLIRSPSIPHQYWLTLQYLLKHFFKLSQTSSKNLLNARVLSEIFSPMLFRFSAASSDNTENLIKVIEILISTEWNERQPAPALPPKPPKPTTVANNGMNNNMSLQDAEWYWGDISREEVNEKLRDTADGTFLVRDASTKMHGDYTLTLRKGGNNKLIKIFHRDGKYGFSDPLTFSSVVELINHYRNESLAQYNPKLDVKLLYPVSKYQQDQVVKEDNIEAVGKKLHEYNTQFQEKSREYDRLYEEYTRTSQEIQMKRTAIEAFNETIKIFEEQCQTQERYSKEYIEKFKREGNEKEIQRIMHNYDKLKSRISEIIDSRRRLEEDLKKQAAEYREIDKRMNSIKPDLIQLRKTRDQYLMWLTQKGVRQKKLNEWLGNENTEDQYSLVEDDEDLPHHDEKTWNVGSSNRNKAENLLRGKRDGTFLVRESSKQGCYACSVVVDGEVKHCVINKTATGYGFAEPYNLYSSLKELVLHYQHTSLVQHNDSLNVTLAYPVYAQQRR
# Protocol details: Inhibition of PI3Kα kinase activity, ADP-Glo Assay (Reaction Biology)
# Applied conditions: 10 μM ATP; mean of two replicates; Table 12; read-out: Inhibition of kinase activity (as IC50) PICK
As shown below, each of these compounds has a reported log10(IC50) value.
Note the log scale: values are log10 of IC50 expressed in nM.

Record excerpt, results attached:
>>> df
                                   compound  endpoint_name  measured_number
0  Cc1cc(Cl)ccc1Nc1cc2c(cn1)n(C)c(=O)n2-c1ccc(C(C)(C)C#N)cc1    log10(IC50)             2.90
1  COc1cnc(Nc2cc3c(cn2)n(C)c(=O)n3C2CCOCC2)c(C)c1    log10(IC50)             4.38
2  COC1CCC(n2c(=O)n(C)c3cnc(Nc4ccc(Cl)cc4C)cc32)CC1 (stereo not shown)    log10(IC50)             3.34
3  COc1ccc(-n2c(=O)n(C)c3cnc(Nc4ccc(Cl)cc4C)cc32)cc1    log10(IC50)             2.37
4  Cc1nc2cc(C)c(Nc3cc4c(cn3)n(C)c(=O)n4C3CCOCC3)cc2o1    log10(IC50)             3.75

Qu. Item: Cc1cc2c(cc1Nc1cc3c(cn1)n(C)c(=O)n3C1CCOCC1)OCO2 Test system: human PI3Kα (p110α/p85α) (Homo sapiens) Read-out: log10(IC50) Value: ?
Ans. 3.40

Qu. Item: Cc1cc(OCc2cnc([N+](=O)[O-])n2C)ccc1Nc1cc2c(cn1)n(C)c(=O)n2C1CCCC1 Test system: human PI3Kα (p110α/p85α) (Homo sapiens) Read-out: log10(IC50) Value: ?
Ans. 2.94

Qu. Item: Cc1cc2ncnn2cc1Nc1cc2c(cn1)n(C)c(=O)n2C1CCOCC1 Test system: human PI3Kα (p110α/p85α) (Homo sapiens) Read-out: log10(IC50) Value: ?
Ans. 4.03

Qu. Item: Cc1nc2cc(Nc3cc4c(cn3)n(C)c(=O)n4C3CCOCC3)c(C)cc2o1 Test system: human PI3Kα (p110α/p85α) (Homo sapiens) Read-out: log10(IC50) Value: ?
Ans. 4.04

Qu. Item: COc1ccc(-n2c(=O)n(C)c3cnc(Nc4ccc(S(C)(=O)=O)cc4C)cc32)cc1 Test system: human PI3Kα (p110α/p85α) (Homo sapiens) Read-out: log10(IC50) Value: ?
Ans. 3.26

Qu. Item: Cc1ccc(S(C)(=O)=O)cc1Nc1cc2c(cn1)n(C)c(=O)n2C1CCOCC1 Test system: human PI3Kα (p110α/p85α) (Homo sapiens) Read-out: log10(IC50) Value: ?
Ans. 2.83

Qu. Item: COc1ccc(-n2c(=O)n(C)c3cnc(Nc4cc(S(C)(=O)=O)ccc4C)cc32)cc1 Test system: human PI3Kα (p110α/p85α) (Homo sapiens) Read-out: log10(IC50) Value: ?
Ans. 1.52

Qu. Item: COc1ccc(-n2c(=O)n(C)c3cnc(Nc4ccc(OCc5cnc([N+](=O)[O-])n5C)cc4C)cc32)cc1 Test system: human PI3Kα (p110α/p85α) (Homo sapiens) Read-out: log10(IC50) Value: ?
Ans. 3.11
